# Tested on: Trypanosoma evansi
# measurement_protocol: Antimicrobial activity against Trypanosoma evansi STIB 806K infected in NMRI mouse assessed as host survival days at 2 mg/kg, ip administered 3 to 6 days after infection for 4 consecutive days
# Type: functional
# assay_setup: route intraperitoneal
value_type: Survival (days)
The reply should be a number in days, with the unit left off.

Below: 3 compounds and their reported Survival.
N=C(N)c1ccc(-c2ccc(-c3ccc(C(=N)N)cc3O)o2)cc1    60
N=C(N)c1ccc(/N=N/Nc2ccc(C(=N)N)cc2)cc1 [DIMINAZENE]    60
N=C(N)c1ccc(-c2cc(-c3ccc(C(=N)N)cc3)on2)cc1    60

Entry `N=C(N)c1ccc(-c2ccc(-c3nc4cc(C(=N)N)ccc4o3)o2)cc1` , tested on Trypanosoma evansi, has a reported Survival of 23

Entry `N=C(N)c1ccc(-c2coc(-c3ccc(C(=N)N)cc3)c2)cc1` , tested on Trypanosoma evansi, has a reported Survival of 60

* * *

Let's look at some compounds and their measured Survival.
# System: Trypanosoma evansi
# measurement_protocol: Antimicrobial activity against Trypanosoma evansi STIB 806K infected in NMRI mouse assessed as host survival days at 0.5 mg/kg, ip administered 3 to 6 days after infection for 4 consecutive days
# Format: functional
# assay_setup: route intraperitoneal
The reply should be a number in days, with the unit left off.

N=C(N)c1cccc(-c2ccc(-c3nc4cc(C(=N)N)ccc4[nH]3)cc2)c1    12
N=C(N)c1ccc(-c2coc(-c3ccc(C(=N)N)cc3)c2)cc1    57
N=C(N)c1ccc(-c2ccc(-c3ccc(C(=N)N)nc3)o2)cc1    60

The compound listed as `Cn1c(-c2ccc(C(=N)N)nc2)ccc1-c1ccc(C(=N)N)nc1` has a reported Survival of 34

The compound listed as `N=C(N)c1ccc2nc(-c3ccc(-c4ccc(C(=N)N)c(F)c4)o3)[nH]c2c1` has a reported Survival of 27

The compound listed as `Cc1ccc(C(=O)Nc2ccc(S(=O)(=O)O)c3cc(S(=O)(=O)O)cc(S(=O)(=O)O)c23)cc1NC(=O)c1cccc(NC(=O)Nc2cccc(C(=O)Nc3cc(C(=O)Nc4ccc(S(=O)(=O)O)c5cc(S(=O)(=O)O)cc(S(=O)(=O)O)c45)ccc3C)c2)c1` has a reported Survival of 51

The compound listed as `COc1cc(C(=N)N)ccc1-c1ccnc(-c2ccc(C(=N)N)cc2)n1` has a reported Survival of 15

The compound listed as `N=C(N)c1ccc(-c2cc(-c3ccc(C(=N)N)cc3)on2)cc1` has a reported Survival of 29

* * *

# Tested on: Trypanosoma evansi
# measurement_protocol: Antimicrobial activity against Trypanosoma evansi STIB 806K infected in NMRI mouse assessed as host survival days at 0.25 mg/kg, ip administered 3 to 6 days after infection for 4 consecutive days
# Assay type: functional
# assay_setup: route intraperitoneal
Let's look at some compounds and their measured Survival.
The reply should be a number in days, with the unit left off.

N=C(N)c1ccc(-c2ccc(-c3ccc(C(=N)N)cc3)o2)cc1    60
Cc1cc(=N)c2ccc(Nc3cc(C)[n+](C)c(N)n3)cc2n1C.O=S(=O)([O-])O [QUINAPYRAMINE SULFATE]    41
N=C(N)c1ccc(-c2coc(-c3ccc(C(=N)N)cc3)c2)cc1    41
Cc1ccc(C(=O)Nc2ccc(S(=O)(=O)O)c3cc(S(=O)(=O)O)cc(S(=O)(=O)O)c23)cc1NC(=O)c1cccc(NC(=O)Nc2cccc(C(=O)Nc3cc(C(=O)Nc4ccc(S(=O)(=O)O)c5cc(S(=O)(=O)O)cc(S(=O)(=O)O)c45)ccc3C)c2)c1    11
N=C(N)c1ccc(-c2ccc(-c3ccc(C(=N)N)nc3)o2)cc1    54
Cc1cc(C(=N)N)ccc1-c1cc2cc(C(=N)N)ccc2[nH]1    51

The compound listed as `N=C(N)c1ccc(-c2ccc(-c3ccc(C(=N)N)nc3)o2)nc1` has a reported Survival of 46

The compound listed as `N=C(N)c1ccc(-c2ccc(-c3ccc(C(=N)N)cn3)o2)cc1` has a reported Survival of 60

The compound listed as `N=C(N)c1ccc(-c2ccc(-c3ccc(C(=N)N)cc3O)o2)cc1` has a reported Survival of 38

* * *

# System: Trypanosoma evansi
# measurement_protocol: Antimicrobial activity against Trypanosoma evansi STIB 806K infected in NMRI mouse assessed as host survival days at 2 mg/kg, ip administered 3 to 6 days after infection for 4 consecutive days
# Format: functional
# assay_setup: route intraperitoneal
value_type: Survival (days)
The reply should be a number in days, with the unit left off.

N=C(N)c1ccc(-c2ccc(-c3cn4cc(C(=N)N)ccc4n3)cc2)cc1    35

The molecule listed as `CNC(=N)c1ccc(OCCCCCOc2ccc(C(=N)NC)cc2)cc1` has a reported Survival of 29

The molecule listed as `c1cc(-c2cc3cc(C4=NCCN4)ccc3[nH]2)ccc1C1=NCCN1` has a reported Survival of 39

The molecule listed as `Cn1c(-c2ccc(C(=N)N)cc2)ccc1-c1ccc(C(=N)N)cc1` has a reported Survival of 49

The molecule listed as `N=C(N)c1ccc(-c2csc(-c3ccc(C(=N)N)cc3)n2)cc1` has a reported Survival of 53

The molecule listed as `Cc1cc(C(=N)N)ccc1-c1cc2cc(C(=N)N)ccc2[nH]1` has a reported Survival of 60

The molecule listed as `N=C(N)c1ccc(-c2ccc(-c3ccc(C(=N)N)nc3)o2)cc1` has a reported Survival of 60
